B1: TPR 5TU (parent)
chain: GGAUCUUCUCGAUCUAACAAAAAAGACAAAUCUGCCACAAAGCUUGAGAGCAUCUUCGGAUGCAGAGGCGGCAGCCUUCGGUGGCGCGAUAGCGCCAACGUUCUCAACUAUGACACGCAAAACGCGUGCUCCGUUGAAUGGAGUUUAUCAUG

Variants of: B1
Assay: polymerase ribozyme fitness, log enrichment relative to wild type (log ratio); higher = more active; in vitro selection for triplet polymerase activity
Fewer inactive variants are shown than the library holds.
RECORDED_ENDPOINT: polymerase ribozyme fitness (log ratio)

In the examples that follow, each entry is paired with its recorded polymerase ribozyme fitness (log ratio).
> print(dat)
                               variant.name  result
1                            A40C U45A C54U  ≤ -4.2
2                A23C A40U C95U U134A U151A  ≤ -4.2
3  A20C A41U G68C G83A G100U A115G C116U C123G  ≤ -4.2
4                 A41C C43A A91C C99U A113U  ≤ -4.2

Form field: reported polymerase ribozyme fitness (log ratio) of U9G U13G A22C A28U A41C C76U G92A U148A ≤ -4.2

Form field: reported polymerase ribozyme fitness (log ratio) of A66G C69U ≤ -4.2

Form field: reported polymerase ribozyme fitness (log ratio) of G42A G48U G58U C75G G83A U104G ≤ -4.2

Form field: reported polymerase ribozyme fitness (log ratio) of A26C U44G A91U U145C ≤ -4.2

Form field: reported polymerase ribozyme fitness (log ratio) of C8U C57U G71C G86A U104A ≤ -4.2

Form field: reported polymerase ribozyme fitness (log ratio) of C10G A52U C72U G86U C93U C116G G124A U144C ≤ -4.2

Form field: reported polymerase ribozyme fitness (log ratio) of G50U C105U 0.638

Form field: reported polymerase ribozyme fitness (log ratio) of G86A C114U -2.15

Form field: reported polymerase ribozyme fitness (log ratio) of A28U C79A C87G C96G ≤ -4.2

Form field: reported polymerase ribozyme fitness (log ratio) of C8G A29U A41G U61A G68A U82C A89G C116U ≤ -4.2

Form field: reported polymerase ribozyme fitness (log ratio) of A20C G94U G152C -2.76

Form field: reported polymerase ribozyme fitness (log ratio) of A23C G58A G62A C87A C116G U135G ≤ -4.2

Form field: reported polymerase ribozyme fitness (log ratio) of A37G C87U -2.16

Form field: reported polymerase ribozyme fitness (log ratio) of A49U U55A A106G -0.994

Form field: reported polymerase ribozyme fitness (log ratio) of A60U G86A -2.78

Form field: reported polymerase ribozyme fitness (log ratio) of G68U A150G ≤ -4.2

Form field: reported polymerase ribozyme fitness (log ratio) of A20U U33G G42U C63G G71A A113G ≤ -4.2
